- ASSAYED_SYSTEM: Cellular tumor antigen p53 (Homo sapiens) (UniProt P04637)
- Sequence (P04637 whole entry, looked up): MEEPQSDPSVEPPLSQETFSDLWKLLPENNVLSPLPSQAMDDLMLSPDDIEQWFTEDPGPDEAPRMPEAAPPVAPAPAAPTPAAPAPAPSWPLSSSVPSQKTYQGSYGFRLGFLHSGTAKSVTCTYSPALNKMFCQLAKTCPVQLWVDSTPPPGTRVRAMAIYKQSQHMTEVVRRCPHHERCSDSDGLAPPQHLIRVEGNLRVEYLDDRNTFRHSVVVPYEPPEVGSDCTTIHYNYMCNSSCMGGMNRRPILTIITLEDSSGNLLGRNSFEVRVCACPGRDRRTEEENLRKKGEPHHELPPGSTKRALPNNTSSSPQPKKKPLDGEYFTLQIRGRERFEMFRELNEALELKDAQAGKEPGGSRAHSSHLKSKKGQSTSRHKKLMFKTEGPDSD
- PROTOCOL_DETAILS: TOX21_p53_BLA_p4_ratio: Tox21 HCT-116 p53 Agonism Beta-lactamase Assay, Ratio, Phase 4 (AID 2283601)
Results filed as inconclusive are left out. The source made the active and inactive calls. The calls were made as follows: active = hit-call score of the fitted dose curve at least 0.9, where 1 is the maximum; inconclusive = response in the unintended direction; inactive = score below 0.9.
Pick one and only one: y for active, n for inactive

Worked cases, answers included:
>>> group_label("C[C@]1(O)CC[C@H]2[C@@H]3CCC4=CC(=O)CC[C@]4(C)[C@@]3(F)[C@@H](O)C[C@@]21C")
"n"
>>> group_label("C[C@]12CCC(=O)C(O)=C1CC[C@@H]1[C@@H]2CC[C@]2(C)C(=O)CC[C@@H]12")
"n"
>>> group_label("O=C(CCCN1CCC(n2c(=O)[nH]c3ccccc32)CC1)c1ccc(F)cc1")
"n"
>>> group_label("CCCCCCC[CH2][Sn]([Cl])([Cl])[CH2]CCCCCCC")
"n"
>>> group_label("CC(Cl)Cl")
"n"

Q) State the result this test recorded for C=CCO .
A) n
